Reported growth values for the following molecules.
- Tested on: SF-268 CNS
- method-summary: NCI-60 one-dose screen, 48 h (100 = growth as untreated, 0 = no growth, -100 = all killed)
- details: 10 µM
About 83,000 compounds went through this panel and 20% of them were active in at least one assay; those are over-represented in the sample as a whole.
Provide the reading as a plain figure in %.

molecule: CC(=O)Cc1cc(-c2cc(CC(C)=O)[nH]n2)n[nH]1
growth / %: 98.5

molecule: O=[N+]([O-])c1ccccc1S(=O)c1ccccc1[N+](=O)[O-]
growth / %: 88.1

molecule: C/C(=N\O)C1(O)CCCCC1
growth / %: 82.7

molecule: O=C(c1ccccc1)C1CCC1
growth / %: 100

q: Answer with growth of C/C(=N/NC(N)=O)c1ccco1 measured for SF-268 CNS.
a: 104

q: Give growth; test system SF-268 CNS; molecule Cc1cc(Cc2cc(C)c(N)cc2N)c(N)cc1N
a: 90.9

q: Look up and report measured growth (SF-268 CNS) for the following molecule: O=C(/C=C\c1ccc(O)cc1)c1ccccc1
a: 90

* * *

- System: NCI-H522 lung
- method-summary: NCI-60 one-dose screen, 48 h (100 = growth as untreated, 0 = no growth, -100 = all killed)
- details: 10 µM
This is part of a sample that, as a whole, favours compounds with a hit. Of some 83,000 tested, about 20% had one in any assay.
parameter: growth (%)
Respond with the bare value in %.

molecule: CC1CCCC(CC(N)=O)CC1 (stereo not drawn)
subject-of-test: NCI-H522 lung
growth / %: 88.1
//
molecule: COc1cccc(Sc2ccc([N+](=O)[O-])c3no[n+]([O-])c23)c1
subject-of-test: NCI-H522 lung
growth / %: -19.9
//
molecule: Cc1cc(NC(=O)CSCC(=O)O)no1
subject-of-test: NCI-H522 lung
growth / %: 101
//
molecule: CCN(CC)c1ccc2nc3ccc(=[N+](CC)CC)cc-3oc2c1
subject-of-test: NCI-H522 lung
growth / %: -29.6
//
molecule: CCOc1ccc(I)cc1
subject-of-test: NCI-H522 lung
growth / %: 105

q: Determine reported growth for O=C(O)COCC(=O)O ; test system: NCI-H522 lung.
a: 94.3

q: Provide growth, tested on NCI-H522 lung, for CC1CCCCN1C(=S)Nc1ccc(S(=O)(=O)N2CCCCC2)cc1 (stereo not drawn) .
a: 73

q: Supply growth measured with NCI-H522 lung for Cc1nc2ccccc2c(C(=O)O)c1O .
a: 104

q: Find the measured growth of CC(=O)/C(Cc1ccccc1)=N/O with NCI-H522 lung as test system.
a: 74.3

q: Write down measured growth (NCI-H522 lung) for this molecule. Nc1ccc(N=Nc2ccc(S(=O)(=O)O)cc2)c2ccccc12
a: 95.7

* * *

- System: A549/ATCC NSCLC
- method-summary: NCI-60 one-dose screen, 48 h (100 = growth as untreated, 0 = no growth, -100 = all killed)
- details: 10 µM
Compounds without any hit were thinned out: in the full panel of roughly 83,000, 20% have a hit.
# reported growth; entries follow
// note: answer is a bare numeric in %

compound: Cc1cccc(C(=O)N(C(C)C)C(C)C)c1
subject-of-test: A549/ATCC NSCLC
readout-units: %
growth: 86.3
--
compound: Sc1ccc(Nc2c3ccccc3nc3ccccc23)cc1
subject-of-test: A549/ATCC NSCLC
readout-units: %
growth: 61
--
compound: COc1cccc(O)c1O
subject-of-test: A549/ATCC NSCLC
readout-units: %
growth: 101

q: Look up and report measured growth for this entry: CN(C)c1ccc(S(=O)(=O)O)cc1
a: 105

q: Give a short answer stating reported growth for CCOC(=O)C(C#N)Cc1ccccc1 (configuration not stated) .
a: 109

q: Provide one value: measured growth of CC1=NN(c2ccccc2)C(=O)/C1=C\N1CC(=O)NC1=S
a: 100

q: Identify growth associated with the compound COC(=O)Nc1cccc(Cl)c1OC
a: 106
